- Test system: SF-539 CNS
- measurement.description: NCI tumour cell line growth inhibition, 48 h
measured.metric: log10(TGI) (log10 of the value in µM)

>  <molecule>
C=C(C)[C@@H]1CC[C@]2(C(=O)O)CC[C@]3(C)[C@H](CC[C@@H]4[C@@]5(C)CC[C@H](C(=O)/C=C/c6ccc(O)cc6)C(C)(C)[C@@H]5CC[C@]43C)[C@@H]12

>  <log10(TGI)>
1.31

$$$$
>  <molecule>
CC(NNC(=S)N1CCCCCC1)c1ccc2ccccc2n1 (centres undefined)

>  <log10(TGI)>
1.10

$$$$
>  <molecule>
O=c1cc(-c2cccc(OC(F)(F)F)c2)[nH]c2cc3c(cc12)OCO3

>  <log10(TGI)>
-0.69

$$$$
>  <molecule>
CC(C(=O)Oc1ccc2ccccc2c1-c1c(O)ccc2ccccc12)c1ccccc1 (centres undefined)

>  <log10(TGI)>
1.53

$$$$
>  <molecule>
COc1ccc(OC)c2nc3c(C(=O)NCCN(C)C)cccc3nc12

>  <log10(TGI)>
1.30

$$$$
>  <molecule>
COc1cccc(-c2nc3c(C(=O)NCCN(C)C)cccc3[nH]2)c1

>  <log10(TGI)>
1.62

$$$$
>  <molecule>
Cc1ccc2c(N)c(C(=O)N[C@H]3CCc4cc(N5CC6CCC(C5)N6)ccc4C3)sc2n1

>  <log10(TGI)>
0.34

$$$$
>  <molecule>
O=[N+]([O-])C(=C(N1CCOCC1)N1CCOCC1)/C(Cl)=C(\Cl)[N+](=O)[O-]

>  <log10(TGI)>
1.38

$$$$
>  <molecule>
S=C1N(c2ccc(Cl)cc2)C2=C(N=Nc3ccccc3)C(=Nc3ccccc3S2)N1c1ccccn1

>  <log10(TGI)>
1.48

$$$$
>  <molecule>
O=C1c2ccccc2-c2c1c1ccccc1c(=O)n2CCCN1CCOCC1

>  <log10(TGI)>
1.29

$$$$
>  <molecule>
COc1cc(/C=C/C(=O)c2ccc(Cl)cc2)ccc1OS(=O)(=O)c1ccc(C)cc1

>  <log10(TGI)>
1.38

$$$$
>  <molecule>
Cc1cc(S(=O)(=O)Nc2nnc(-c3ccccc3)c(-c3ccccc3)n2)c(SCc2ccccc2)cc1Cl

>  <log10(TGI)>
1.59

$$$$
>  <molecule>
CCN(CC)CCOc1ccc(/C=C2\CC3C4CC=C5C[C@@H](N6CCCC6)CC[C@]5(C)C4CC[C@]3(C)[C@H]2O)cc1OC (some centres undefined)

>  <log10(TGI)>
0.59

$$$$
>  <molecule>
CCCCc1c2c(nc3c1CCC/C3=C\c1ccccc1)C(=O)C(CN(C)C)CC2 (centres undefined)

>  <log10(TGI)>
1.56

$$$$
>  <molecule>
Fc1ccc(-c2ccc(-c3nnc(-c4cc(F)c(Cl)cc4Cl)o3)o2)cc1Cl

>  <log10(TGI)>
1.93

$$$$
>  <molecule>
C[C@]12CC[C@@H]3c4ccc(O)cc4CC[C@H]3[C@@H]1CC[C@@H]2NS(=O)(=O)Cc1ccc(Cl)cc1

>  <log10(TGI)>
0.64

$$$$
>  <molecule>
CC1(C)COC(/C=C/C2=NC(C)(C)CO2)=N1

>  <log10(TGI)>
1.71

$$$$
>  <molecule>
CC(=O)Nc1ccc2c(C)c3c4ccccc4n(C)c3nc2n1

>  <log10(TGI)>
1.89

$$$$
>  <molecule>
O=C1CC2(CCC(O)(c3ccc(Cl)cc3)C(C(=O)c3ccc(Cl)cc3)C2)C(=O)c2ccccc2N1 (centres undefined)

>  <log10(TGI)>
1.05

$$$$
